Target: Platelet-activating factor acetylhydrolase 2, cytoplasmic (Homo sapiens) (UniProt Q99487)
Assay: inhibition of cytoplasmic PAF acetylhydrolase 2 – biochemical, fluorescence polarization, human, primary screen (AID 492956);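 note: inhibitors block probe labeling of enzyme so polarization drops; 0% = enzyme with DMSO and 100% = wells lacking PAFAH2 protein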
Settings: recombinant PAFAH2, FP-rhodamine activity probe, at 3.39 µM, hits give high values
Hit rate of the full screen: of about 340,000 compounds, about 3,300 (0.97%) were called active. What follows is part of a selection rich in actives, with near analogues and random picks from the rest.
recorded-endpoint: inhibition (%)

O=C(Nc1nnc(SCc2c(Cl)cccc2Cl)s1)c1cccc([N+](=O)[O-])c1 ... 57.2
COCCCn1c(SCC(=O)Nc2oc(C)c3c(C)n[nH]c(=O)c23)nc2sc3c(c2c1=O)CCC3 ... -2.08
O=C(NCc1ccccc1Cl)C1CCCO1 (stereo not given) ... 6.52
COC(=O)C1CCN(C(=O)c2ccc3oc(Cc4ccc(Cl)cc4)nc3c2)CC1 ... -2.24
CCc1ccccc1NC(=O)c1ccc2c(c1)CCN2S(C)(=O)=O ... 2.6
Cc1cc(-c2nnc(SCC(=O)Nc3ccc(S(N)(=O)=O)cc3)n2N)n[nH]1 ... -4.23
Cc1cc(C)c(C#N)c(Nc2cccc(Br)c2)n1 ... -4.25
O=C(NCCS(=O)(=O)N1CCN(c2ccccc2F)CC1)c1ccc(Br)o1 ... -0.55
O=C(Nc1nnc(SCc2c(Cl)cccc2Cl)s1)C1CCCO1 (stereo not given) ... 35.8
CNC(=O)C1CC(=O)N(Cc2ccc3c(c2)OCO3)C(=Nc2ccc(F)cc2)S1 (stereo not given) ... 0.97

====

Biological target: Platelet-activating factor acetylhydrolase 2, cytoplasmic (Homo sapiens) (UniProt Q99487)
Assay: inhibition of cytoplasmic PAF acetylhydrolase 2 – biochemical, fluorescence polarization, human, primary screen (AID 492956);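 note: inhibitors block probe labeling of enzyme so polarization drops; 0% = enzyme with DMSO and 100% = wells lacking PAFAH2 protein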
Conditions: recombinant PAFAH2, FP-rhodamine activity probe, at 3.39 µM
In all, about 340,000 compounds went through this assay and about 3,300 (0.97%) were called active.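 How the source made its calls: active means inhibition above the mean over all tested compounds plus 3 SD (cut at about 30% in these data); inactive means the rest.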 The sample holds actives, similar compounds and a random draw of the others, so the mix is not that of the screen.
Possible outcomes: active, inactive

CC(NC(=O)COC(=O)c1ccc(Cl)cc1O)c1ccc(F)cc1 (centres undefined) ... inactive
Cc1noc(C)c1C(=O)NC(C)c1ccc2c(c1)OCO2 (centres undefined) ... inactive
Cc1noc(C)c1C(=O)N(CC(=O)NC1CCCC1)Cc1ccccc1F ... inactive
O=C(/C=C/c1cccs1)c1cc(Cl)ccc1OC(=O)N1CCOCC1 ... active
COc1ccc(-c2nc3c(s2)CCc2onc(-c4ccc(Br)cc4)c2-3)cc1 ... inactive
Cc1ccc(S/C(=N\S(=O)(=O)c2ccc(Cl)cc2)c2ccccc2)cc1 ... inactive
C=CCOc1ccc(/C=C/C(=O)OCC(=O)NC2CCCCCC2)cc1 ... active
O=C(COC(=O)c1cccs1)Nc1ccccc1Cl ... active
COC(=O)Nc1nc2ccc(Sc3ccccc3)cc2[nH]1 ... inactive
O=c1cc(O)c(-c2cccc(C(F)(F)F)c2)c(Cl)[nH]1 ... inactive
CC(C)(C)c1ccccc1NC(=O)CN1C(=O)NC2(CCCC2)C1=O ... inactive
O=C(NCc1cccnc1)c1cccnc1Sc1ccc(Cl)cc1 ... inactive
COc1ccccc1CNC(=O)COC(=O)c1sc(C)nc1C ... active
C=CCOCCN(C)C1=NS(=O)(=O)c2ccccc21 ... inactive
Cc1cccc(NS(=O)(=O)c2ccc(C(=O)NCC(C)(C)N3CCOCC3)cc2)c1C ... inactive
CNC(=O)c1sc(NCc2ccccc2OC)nc1C ... inactive
NS(=O)(=O)c1ccc(NC(=O)COC(=O)c2c3c(nc4ccccc24)/C(=C\c2ccc4c(c2)OCO4)CCC3)cc1 ... inactive
Cc1nnsc1C(=O)NCc1c(F)cccc1Cl ... inactive
COCCCn1c(Cc2csc(Nc3cccc(Cl)c3)n2)nnc1SCC(=O)OC1CCCCC1 ... inactive
COC(=O)c1ccccc1NC(=O)C1(S(=O)(=O)c2ccc(Cl)cc2)CC1 ... inactive
COc1ccc(/C=N/N(C)C2=NS(=O)(=O)c3ccccc32)cc1OC ... active
COc1ccc(Cc2n[nH]c(=S)n2NC(=O)Nc2ccc(C)cc2)cc1 ... inactive
Cc1cc(F)ccc1NC(=O)C(C)n1c2ccccc2c2nc(=O)cc(C)n21 (centres undefined) ... inactive
C=CCOc1ccc(/C=C/C(=O)OCC(=O)NCC2CCCO2)cc1 (centres undefined) ... inactive
COc1ccccc1CNC(=O)COC(=O)c1cccs1 ... active
CCS(=O)(=O)c1ccc(O)c(NC(=O)COc2ccc(Cl)cc2)c1 ... active
O=C(Cc1ccc([N+](=O)[O-])cc1)Nc1ccc(C(=O)N2CCOCC2)cc1 ... inactive
O=C(COC(=O)/C(=C/c1cccs1)c1cccs1)NCc1ccccc1Cl ... inactive
O=C(COC(=O)c1ccc(Cl)nc1)NCc1cccs1 ... inactive
Cc1ccc(NC(=S)Nc2ncccc2C)c(C)c1 ... inactive
COc1cc(C(=O)NN(CCC#N)C2=NS(=O)(=O)c3ccccc32)cc(OC)c1OC ... inactive
CC1CCCCC1NC(=O)CO/N=C/c1ccc(OC(F)F)cc1 (centres undefined) ... inactive
O=C(O)c1ccc(NS(=O)(=O)c2ccc3c(c2)C(=O)c2cc(S(=O)(=O)Nc4ccc(C(=O)O)cc4)ccc2-3)cc1 ... inactive
Clc1ccc(C2[C@H]3CN(CC4CCCCC4)[C@H](c4ccccc4)C34CC2(c2cccnc2)C4)cn1 (some centres undefined) ... inactive
CC1=NC2(CCCc3c2no[n+]3[O-])N(O)C1(C)C (centres undefined) ... inactive
C=CCOc1ccc(/C=C/C(=O)OCC(=O)NC(C)c2ccc(F)cc2)cc1 (centres undefined) ... active
CC(Nc1ccc([N+](=O)[O-])cc1[N+](=O)[O-])c1ccccc1 (centres undefined) ... inactive
COC(=O)c1sc(-c2ccc(C(C)(C)C)cc2)cc1NC(=O)/C=C/C(=O)O ... inactive
CCCCCn1c(=O)[nH]c2cc(C(=O)NCCCN3CCCCC3C)ccc2c1=O (centres undefined) ... inactive
CCOC(=O)C(=CNNc1ccsc1C(=O)OC)C(=O)OCC ... inactive
O=C(NCCNc1ccc([N+](=O)[O-])cc1)c1cccc2c(Br)cccc12 ... inactive
C=CCNc1nnc(SCC(=O)N2CCCCC2)c2ccccc12 ... inactive
C=CCn1c(=S)[nH]c2nc3c(cc2c1=O)COC(C)(C)C3 ... inactive
CCc1ccc(C2C(C#N)=C(N)N(N3CCOCC3)C3=C2C(=O)CC(C)(C)C3)s1 (centres undefined) ... inactive
